# Tested on: A673/TR/shEF
# Method Notes: cell viability (LOESS-normalised, relative to median of negative controls) (log2 ratio); higher = more viable cells (less compound effect), active = hit call of the paper (over 3 MAD below the median)
# Test Context: 0.103 µM; library screen: screen3; EWS-FLI1 expression: high (no doxycycline); treatment time: 72 h
In all, about 3,200 compounds went through this assay and about 300 (9.4%) showed activity. This excerpt belongs to a sample that is enriched for actives.
Test Readout: cell viability (log2)
One number for each entry.

[[record]]
compound = "C[C@]12CC[C@H]3[C@@H](CCC4=CC(=O)CC[C@@]43C)[C@@H]1CC[C@@H]2OC(=O)CCC1CCCC1"
test_readout = "cell viability (log2)"
quantitative_readout = -0.000785

[[record]]
compound = "C[C@]12CC[C@H](O)CC1=CC[C@@H]1[C@@H]2CC[C@]2(C)C(=O)CC[C@@H]12"
test_readout = "cell viability (log2)"
quantitative_readout = -0.0409

[[record]]
compound = "Cc1c(N)nc(C(CC(N)=O)NCC(N)C(N)=O)nc1C(=O)NC(C(=O)NC(C)C(O)C(C)C(=O)NC(C(=O)NCCc1nc(-c2nc(C(=O)NCCC[S+](C)C)cs2)cs1)C(C)O)C(O[C@@H]1O[C@@H](CO)[C@@H](O)[C@H](O)[C@@H]1O[C@H]1O[C@H](CO)[C@@H](O)[C@H](OC(N)=O)[C@@H]1O)c1cnc[nH]1 (stereo not given in full)"
test_readout = "cell viability (log2)"
quantitative_readout = 0.0914


Parameter requested: cell viability (log2). Apply to each item below.
1. COP(=S)(OC)SCn1nnc2ccccc2c1=O
2. Cc1cccc(C)c1NC(=O)CN1CCCC1=O

-- reply
1: -0.0814; 2: 0.119

----------
# Tested on: A673/TR/shEF
# Method Notes: cell viability (LOESS-normalised, relative to median of negative controls) (log2 ratio); higher = more viable cells (less compound effect), active = hit call of the paper (over 3 MAD below the median)
# Test Context: 2.5 µM; library screen: screen1; EWS-FLI1 expression: low (doxycycline-induced shRNA knockdown); treatment time: 72 h
Screen size: about 3,200 compounds; about 300 (9.4%) showed activity. For the sample, actives were picked, then their nearest neighbours and some compounds at random.
For each entry below, report its cell viability (log2) value.
Give bare numbers.

[[record]]
compound = "CC(=O)CC1CCCCN1 (configuration not stated)"
quantitative_readout = -0.083


The following compounds each have a reported value; give each one's cell viability (log2).
1. COc1ccccc1N1CCNCC1
2. COc1ccc(CN2CCN(Cc3cccc(OC)c3)CC2)cc1

-- reply
1. 0.112
2. 0.0992

Please supply cell viability (log2) for each of the following items, keeping them in order.
1. c1ccc2nc(N3CCNCC3)ccc2c1
2. C/C=C/c1ccc2c(c1)OCO2
3. N[C@@H](Cc1ccc(N(CCCl)CCCl)cc1)C(=O)O
4. C[C@]12CCC(=O)C=C1C=CC1C2CC[C@@]2(C)C1CC[C@@]2(O)CCC(=O)O (some centres not stated)

-- reply
1. 0.12
2. 0.0835
3. 0.0488
4. -0.00183

----------
# System: A673/TR/shEF
# Method Notes: cell viability (LOESS-normalised, relative to median of negative controls) (log2 ratio); higher = more viable cells (less compound effect), active = hit call of the paper (over 3 MAD below the median)
# Test Context: 0.25 µM; library screen: screen2; EWS-FLI1 expression: low (doxycycline-induced shRNA knockdown); treatment time: 72 h
In all, about 3,200 compounds went through this assay and about 300 (9.4%) showed activity. The entries come from a sample that favours actives as a whole.
API: response.call in class 1 for active, class 0 for inactive

[[record]]
molecule = "O=C(O)[C@@H]1CCN1"
assigned_label = "class 0"


-- ask Hi, do you know how CC(Cc1ccc(OCC(=O)O)cc1)NCC(O)c1cccc(Cl)c1 (stereo unspecified) came out in this test?
-- reply class 0

-- ask Item: COc1cc2c(c(OC)c1OC)-c1ccc(OC)c(=O)cc1[C@@H](NC(C)=O)CC2
-- reply class 1

-- ask One more molecule: C[C@]12CCC3C(CC[C@H]4C[C@H](O)CC[C@]34C)C1CC[C@@H]2C(=O)CO (stereo partly specified)
-- reply class 0

-- ask How about this molecule: CC1=C[C@@H]2c3cccc4[nH]cc(c34)C[C@H]2N(C)C1
-- reply class 0

-- ask // query: CC(C)(C)c1cc(C=C(C#N)C#N)cc(C(C)(C)C)c1O
-- reply class 0

----------
# Tested on: A673/TR/shEF
# Method Notes: cell viability (LOESS-normalised, relative to median of negative controls) (log2 ratio); higher = more viable cells (less compound effect), active = hit call of the paper (over 3 MAD below the median)
# Test Context: 2.5 µM; library screen: screen1; EWS-FLI1 expression: low (doxycycline-induced shRNA knockdown); treatment time: 72 h
Screen size: about 3,200 compounds; about 300 (9.4%) showed activity. For the sample, actives were picked, then their nearest neighbours and some compounds at random.
// classify into yes (1) = active, no (0) = inactive

Sample answers from the record:
[[record]]
molecule = "CC(=O)O[C@@H]1C[C@H]2C(C)(C)C(=O)C=C[C@]2(C)[C@H]2CC[C@]3(C)C(=CC(=O)O[C@H]3c3ccoc3)[C@@]21C"
assigned_label = "no (0)"

[[record]]
molecule = "CC[S+]([O-])CCSP(=O)(OC)OC (centres undefined)"
assigned_label = "no (0)"

[[record]]
molecule = "C[C@]12CC[C@H](O)C[C@H]1CC[C@@H]1[C@@H]2C[C@@H](O)[C@]2(C)[C@@H](C3=CC(=O)OC3)CC[C@]12O"
assigned_label = "yes (1)"


Now take the following molecule into account.
-- ask Test call, this molecule: C[C@]12C=CC(=O)C=C1CC[C@@H]1[C@@H]2CC[C@]2(C)C(=O)CC[C@@H]12
-- reply no (0)

----------
# Test system: A673/TR/shEF
# Method Notes: cell viability (LOESS-normalised, relative to median of negative controls) (log2 ratio); higher = more viable cells (less compound effect), active = hit call of the paper (over 3 MAD below the median)
# Test Context: 2.5 µM; library screen: screen1; EWS-FLI1 expression: low (doxycycline-induced shRNA knockdown); treatment time: 72 h
Screen size: about 3,200 compounds; about 300 (9.4%) showed activity. The sample holds actives, similar compounds and a random draw of the others, so the mix is not that of the screen.
Exam item: assign Fulfilled to entries whose cell viability (log2) is below 0.09 and Not fulfilled to entries at or above 0.09. Note that a value of exactly 0.09 receives Not fulfilled.

Here's what some known entries look like.
[[record]]
compound = "CN(C)[C@@H]1C(=O)C(C(N)=O)=C(O)[C@@]2(O)C(=O)C3=C(O)c4c(O)cccc4[C@@](C)(O)[C@H]3C[C@@H]12"
assigned_label = "Not fulfilled"

[[record]]
compound = "NC(=NCCCC(N)C(=O)O)N[N+](=O)[O-] (stereo not given)"
assigned_label = "Not fulfilled"


-- ask Does this compound meet the criterion cell viability (log2) < 0.09? CN(C)C(=S)SSC(=S)N(C)C
-- reply Fulfilled

-- ask Would you kindly repeat that for CC(N)C(O)c1ccc(O)c(O)c1 (stereo not given) ?
-- reply Not fulfilled

-- ask Query C=C[C@H]1CN2CC[C@H]1C[C@@H]2[C@@H](OC(=O)OCC)c1ccnc2ccc(OC)cc12 next
-- reply Not fulfilled

-- ask Also C[C@H]1C[C@@H](O)[C@]2(O)[C@@]13CC(=O)OC[C@@]2(C)[C@](C)(O)C(=O)C3 , if possible.
-- reply Fulfilled

-- ask Field entry: CC(=O)c1c(O)c(C)c(O)c(Cc2c(O)c3c(c(C(=O)/C=C/c4ccccc4)c2O)OC(C)(C)C=C3)c1O
-- reply Fulfilled

-- ask Please give the result for COS(C)(=O)=O too.
-- reply Fulfilled

----------
# Test system: A673/TR/shEF
# Method Notes: cell viability (LOESS-normalised, relative to median of negative controls) (log2 ratio); higher = more viable cells (less compound effect), active = hit call of the paper (over 3 MAD below the median)
# Test Context: 2.8 µM; library screen: screen3; EWS-FLI1 expression: low (doxycycline-induced shRNA knockdown); treatment time: 72 h
Hit rate of the full screen: of about 3,200 compounds, about 300 (9.4%) showed activity. The sample holds actives, similar compounds and a random draw of the others, so the mix is not that of the screen.
Test Readout: cell viability (log2)
Numbers only.

Example molecules with recorded cell viability (log2):
[[record]]
molecule = "Cn1c(CCCC(=O)O)nc2cc(N(CCCl)CCCl)ccc21"
quantitative_readout = -0.00369

[[record]]
molecule = "CN1[C@H]2CC(OC(=O)C(CO)c3ccccc3)C[C@H]1[C@H]1O[C@H]12 (stereo partly drawn)"
quantitative_readout = 0.0597

[[record]]
molecule = "CN1[C@@H]2CC[C@H]1CC(OC(=O)C(CO)c1ccccc1)C2 (stereo partly drawn)"
quantitative_readout = -0.00135

[[record]]
molecule = "C[C@@H]1[C@H](O)[C@@H](C)/C=C/C=C/CC/C=C/C=C/C=C/C=C/C(O[C@H]2O[C@H](C)[C@@H](O)[C@H](N)[C@@H]2O)CC2O[C@](O)(CC(O)C(O)CCC(O)CC(O)CC(O)CC(=O)O[C@H]1C)CC(O)C2C(=O)O (stereo partly drawn)"
quantitative_readout = 0.0174

[[record]]
molecule = "CC[C@@]1(O)C(=O)OCc2c1cc1n(c2=O)Cc2cc3ccccc3nc2-1"
quantitative_readout = -1.16

[[record]]
molecule = "CC1=C2C[C@H]3[C@@H](CC=C4C[C@@H](O)CC[C@@]43C)[C@@H]2CC[C@]12O[C@@H]1C[C@H](C)CN[C@H]1[C@H]2C"
quantitative_readout = 0.0183

[[record]]
molecule = "C[C@]12CC[C@H](O)CC1=CC[C@@H]1[C@@H]2CC[C@]2(C)C(=O)CC[C@@H]12"
quantitative_readout = 0.0405


--- query ---
-- ask Lab note: need cell viability (log2) for O=C(OC1CC2CCC(C1)[N+]21CCCC1)C(O)(c1ccccc1)c1ccccc1 (stereo not drawn) on A673/TR/shEF, anyone have it?
-- reply 0.0957
